Biological target: OPRK1 (Homo sapiens, UniProt P41145)
Sequence (P41145 whole entry, species assumed): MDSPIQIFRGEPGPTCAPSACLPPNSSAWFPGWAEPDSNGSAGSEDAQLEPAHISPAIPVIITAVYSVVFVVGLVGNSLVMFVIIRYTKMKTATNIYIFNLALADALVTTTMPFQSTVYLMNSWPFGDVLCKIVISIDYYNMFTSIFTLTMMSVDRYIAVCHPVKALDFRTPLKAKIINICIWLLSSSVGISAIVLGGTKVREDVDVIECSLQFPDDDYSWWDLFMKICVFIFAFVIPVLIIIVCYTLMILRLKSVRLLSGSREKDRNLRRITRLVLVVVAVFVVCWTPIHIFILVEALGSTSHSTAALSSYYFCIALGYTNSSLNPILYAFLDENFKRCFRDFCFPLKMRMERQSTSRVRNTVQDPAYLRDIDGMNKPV
Assay: Mini-profiling panel, GPCR
pEC50: −log10 of the molar value.
experimental-endpoint: pEC50

• Cn1cnc2c(=O)n(-c3cccnc3C3CC3)c3cc(Cl)ccc3c21 = < 5.00

====

Biological target: CNR1 (Homo sapiens)
Sequence (P21554 whole entry, species assumed): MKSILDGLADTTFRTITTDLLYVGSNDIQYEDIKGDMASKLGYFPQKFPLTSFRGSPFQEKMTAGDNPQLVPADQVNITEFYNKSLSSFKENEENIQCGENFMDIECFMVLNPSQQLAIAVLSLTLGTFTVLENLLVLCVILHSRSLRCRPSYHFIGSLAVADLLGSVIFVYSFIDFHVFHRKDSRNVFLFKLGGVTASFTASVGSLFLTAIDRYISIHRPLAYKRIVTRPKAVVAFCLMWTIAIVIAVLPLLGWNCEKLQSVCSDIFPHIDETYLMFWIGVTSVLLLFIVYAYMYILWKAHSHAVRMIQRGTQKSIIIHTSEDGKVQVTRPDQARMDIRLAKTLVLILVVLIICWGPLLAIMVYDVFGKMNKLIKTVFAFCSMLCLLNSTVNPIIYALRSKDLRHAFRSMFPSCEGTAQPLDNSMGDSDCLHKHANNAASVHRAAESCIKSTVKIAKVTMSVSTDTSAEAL
Test: Mini-profiling panel, GPCR
pIC50: −log10 of the molar value.
experimental-endpoint: pIC50

- Cn1cnc2c(=O)n(-c3cccnc3C3CC3)c3cc(Cl)ccc3c21: < 5.00

====

Target: COX2 (Homo sapiens)
Sequence (P35354 18-604): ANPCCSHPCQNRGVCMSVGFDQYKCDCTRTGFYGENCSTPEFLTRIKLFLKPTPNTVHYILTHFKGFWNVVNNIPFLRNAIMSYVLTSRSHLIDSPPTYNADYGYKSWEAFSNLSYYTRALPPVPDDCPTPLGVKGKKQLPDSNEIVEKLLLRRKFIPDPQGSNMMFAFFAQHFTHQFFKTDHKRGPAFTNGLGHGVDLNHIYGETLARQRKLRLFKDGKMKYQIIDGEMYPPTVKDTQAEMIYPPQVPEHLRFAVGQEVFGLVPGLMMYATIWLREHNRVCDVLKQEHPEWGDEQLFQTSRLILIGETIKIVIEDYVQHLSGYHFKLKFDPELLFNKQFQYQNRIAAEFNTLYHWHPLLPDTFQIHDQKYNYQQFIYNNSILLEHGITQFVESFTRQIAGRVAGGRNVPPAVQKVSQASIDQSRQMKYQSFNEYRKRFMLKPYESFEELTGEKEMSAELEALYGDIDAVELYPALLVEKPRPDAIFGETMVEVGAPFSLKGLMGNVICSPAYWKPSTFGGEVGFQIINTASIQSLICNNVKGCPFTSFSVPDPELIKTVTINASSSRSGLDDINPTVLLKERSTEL
experimental-endpoint: IC50

• Cn1cnc2c(=O)n(-c3cccnc3C3CC3)c3cc(Cl)ccc3c21 [SCR‐7952] = > 10 µM

====

Molecular target: OPRD1 (Homo sapiens)
Assay: Mini-profiling panel, GPCR
pEC50: −log10 of the molar value.
experimental-endpoint: pEC50

* Cn1cnc2c(=O)n(-c3cccnc3C3CC3)c3cc(Cl)ccc3c21 | < 5.00

====

Target: UniProt P20309
Sequence (P20309 whole entry, species assumed): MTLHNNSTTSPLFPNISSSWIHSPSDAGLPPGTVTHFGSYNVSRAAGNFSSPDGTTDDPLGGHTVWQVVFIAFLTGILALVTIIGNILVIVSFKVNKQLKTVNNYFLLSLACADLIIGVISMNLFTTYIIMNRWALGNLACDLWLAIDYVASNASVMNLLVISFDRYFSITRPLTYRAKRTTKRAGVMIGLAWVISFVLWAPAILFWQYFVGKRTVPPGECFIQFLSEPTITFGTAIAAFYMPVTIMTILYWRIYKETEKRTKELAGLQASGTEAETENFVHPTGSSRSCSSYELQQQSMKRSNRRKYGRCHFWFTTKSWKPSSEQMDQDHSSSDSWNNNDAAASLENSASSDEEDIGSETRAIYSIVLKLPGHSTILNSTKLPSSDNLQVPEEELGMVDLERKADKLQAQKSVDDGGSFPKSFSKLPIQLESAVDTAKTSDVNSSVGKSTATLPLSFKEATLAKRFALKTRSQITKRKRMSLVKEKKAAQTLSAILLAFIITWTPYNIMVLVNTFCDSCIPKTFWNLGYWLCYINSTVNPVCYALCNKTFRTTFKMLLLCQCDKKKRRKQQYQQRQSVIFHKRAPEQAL
Assay: Mini-profiling panel, GPCR
pIC50: −log10 of the molar value.
experimental-endpoint: pIC50

• Cn1cnc2c(=O)n(-c3cccnc3C3CC3)c3cc(Cl)ccc3c21 = < 5.00

====

Target: ADORA2A (Homo sapiens, UniProt P29274)
Sequence (P29274 whole entry, species assumed): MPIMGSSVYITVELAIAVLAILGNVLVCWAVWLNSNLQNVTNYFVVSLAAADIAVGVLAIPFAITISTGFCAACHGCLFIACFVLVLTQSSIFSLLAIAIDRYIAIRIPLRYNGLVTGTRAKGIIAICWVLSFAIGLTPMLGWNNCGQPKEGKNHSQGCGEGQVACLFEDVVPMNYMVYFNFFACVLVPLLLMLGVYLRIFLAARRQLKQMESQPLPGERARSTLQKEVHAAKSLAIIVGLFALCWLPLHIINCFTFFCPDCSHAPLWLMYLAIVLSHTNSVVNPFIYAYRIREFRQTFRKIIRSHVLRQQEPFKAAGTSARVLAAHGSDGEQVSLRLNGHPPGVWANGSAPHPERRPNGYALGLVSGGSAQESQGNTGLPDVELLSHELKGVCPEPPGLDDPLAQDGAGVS
Test: Mini-profiling panel, GPCR
Conditions: GPCR Targets; read-out: ADORA2A Antagonism IC50
pIC50: −log10 of the molar value.
experimental-endpoint: pIC50

* Cn1cnc2c(=O)n(-c3cccnc3C3CC3)c3cc(Cl)ccc3c21 | < 5.00

====

Target: NAV1.5 (Homo sapiens)
Experiment: Mini-profiling panel, ion channel
pIC50: −log10 of the molar value.
experimental-endpoint: pIC50

• Cn1cnc2c(=O)n(-c3cccnc3C3CC3)c3cc(Cl)ccc3c21 [SCR‐7952] = < 5.00

====

Molecular target: nAChR(a4/b2) (Homo sapiens, UniProt P17787+P43681)
Test: Mini-profiling panel, ion channel
experimental-endpoint: EC50

- Cn1cnc2c(=O)n(-c3cccnc3C3CC3)c3cc(Cl)ccc3c21: > 10 µM

====

Target: UniProtKB P46098
Sequence (P46098 24-478): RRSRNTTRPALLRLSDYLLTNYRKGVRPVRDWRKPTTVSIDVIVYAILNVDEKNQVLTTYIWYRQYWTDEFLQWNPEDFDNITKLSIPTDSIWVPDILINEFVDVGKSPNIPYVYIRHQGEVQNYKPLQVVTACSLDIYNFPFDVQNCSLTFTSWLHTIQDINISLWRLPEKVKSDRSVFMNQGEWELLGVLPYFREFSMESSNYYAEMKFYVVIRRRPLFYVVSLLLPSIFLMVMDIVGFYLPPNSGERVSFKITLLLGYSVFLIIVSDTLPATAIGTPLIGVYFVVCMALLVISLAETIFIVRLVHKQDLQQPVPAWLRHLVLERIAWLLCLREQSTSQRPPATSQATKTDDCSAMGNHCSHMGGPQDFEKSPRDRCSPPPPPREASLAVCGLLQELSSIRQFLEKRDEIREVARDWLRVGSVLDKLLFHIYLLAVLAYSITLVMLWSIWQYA
Assay: Mini-profiling panel, ion channel
Format: cell-based
pIC50: −log10 of the molar value.
experimental-endpoint: pIC50

* Cn1cnc2c(=O)n(-c3cccnc3C3CC3)c3cc(Cl)ccc3c21 | < 5.00

====

Target: UniProt P34972
Sequence (P34972 whole entry, species assumed): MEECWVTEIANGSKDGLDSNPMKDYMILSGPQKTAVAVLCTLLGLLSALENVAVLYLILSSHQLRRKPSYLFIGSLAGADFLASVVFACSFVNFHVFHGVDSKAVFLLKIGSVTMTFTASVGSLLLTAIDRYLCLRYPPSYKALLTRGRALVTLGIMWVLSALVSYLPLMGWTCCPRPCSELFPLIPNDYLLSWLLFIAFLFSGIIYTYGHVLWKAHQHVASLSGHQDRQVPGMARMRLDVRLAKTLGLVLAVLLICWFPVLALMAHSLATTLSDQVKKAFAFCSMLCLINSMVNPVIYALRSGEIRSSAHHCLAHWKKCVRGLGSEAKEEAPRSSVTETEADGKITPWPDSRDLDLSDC
Assay: Mini-profiling panel, GPCR
experimental-endpoint: EC50

• Cn1cnc2c(=O)n(-c3cccnc3C3CC3)c3cc(Cl)ccc3c21 = > 10 µM

====

Target: hERG (Homo sapiens)
Sequence (Q12809 whole entry): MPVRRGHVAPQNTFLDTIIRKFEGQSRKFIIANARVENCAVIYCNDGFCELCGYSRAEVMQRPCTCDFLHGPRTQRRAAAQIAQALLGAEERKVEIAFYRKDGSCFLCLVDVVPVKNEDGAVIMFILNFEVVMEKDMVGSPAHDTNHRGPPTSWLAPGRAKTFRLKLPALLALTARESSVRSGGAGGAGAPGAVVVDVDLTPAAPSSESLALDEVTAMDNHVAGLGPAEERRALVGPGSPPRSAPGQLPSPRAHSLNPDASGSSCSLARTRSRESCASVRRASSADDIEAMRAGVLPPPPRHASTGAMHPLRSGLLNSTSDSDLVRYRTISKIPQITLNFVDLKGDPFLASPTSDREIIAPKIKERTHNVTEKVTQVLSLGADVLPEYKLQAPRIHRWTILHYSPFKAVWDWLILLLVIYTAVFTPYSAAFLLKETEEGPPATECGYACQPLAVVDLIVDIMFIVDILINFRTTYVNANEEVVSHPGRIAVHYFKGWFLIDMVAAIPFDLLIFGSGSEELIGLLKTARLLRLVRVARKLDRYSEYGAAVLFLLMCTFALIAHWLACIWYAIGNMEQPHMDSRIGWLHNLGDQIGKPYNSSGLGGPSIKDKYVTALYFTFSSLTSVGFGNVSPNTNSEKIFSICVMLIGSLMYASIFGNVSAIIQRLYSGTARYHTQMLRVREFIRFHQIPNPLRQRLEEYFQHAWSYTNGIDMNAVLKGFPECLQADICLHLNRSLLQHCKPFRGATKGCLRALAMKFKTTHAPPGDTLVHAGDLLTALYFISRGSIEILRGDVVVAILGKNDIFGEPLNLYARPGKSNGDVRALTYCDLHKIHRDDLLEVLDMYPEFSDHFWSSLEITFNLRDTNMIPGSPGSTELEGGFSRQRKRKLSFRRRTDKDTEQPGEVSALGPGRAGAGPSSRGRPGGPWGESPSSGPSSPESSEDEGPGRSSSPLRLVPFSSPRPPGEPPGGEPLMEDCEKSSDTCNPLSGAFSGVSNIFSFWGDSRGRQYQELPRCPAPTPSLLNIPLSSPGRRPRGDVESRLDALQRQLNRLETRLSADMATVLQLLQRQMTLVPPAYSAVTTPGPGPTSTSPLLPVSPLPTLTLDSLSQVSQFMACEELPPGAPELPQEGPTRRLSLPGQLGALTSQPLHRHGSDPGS
Test: Mini-profiling panel, ion channel
Conditions: Ion Channels; read-out: hERG Blocker IC50
pIC50: −log10 of the molar value.
experimental-endpoint: pIC50

* Cn1cnc2c(=O)n(-c3cccnc3C3CC3)c3cc(Cl)ccc3c21 | < 5.00

====

Molecular target: MAOA (Homo sapiens, UniProt P21397)
experimental-endpoint: IC50

* Cn1cnc2c(=O)n(-c3cccnc3C3CC3)c3cc(Cl)ccc3c21 | > 10 µM

====

Target: HTR1B (Homo sapiens, UniProt P28222)
Sequence (P28222 whole entry, species assumed): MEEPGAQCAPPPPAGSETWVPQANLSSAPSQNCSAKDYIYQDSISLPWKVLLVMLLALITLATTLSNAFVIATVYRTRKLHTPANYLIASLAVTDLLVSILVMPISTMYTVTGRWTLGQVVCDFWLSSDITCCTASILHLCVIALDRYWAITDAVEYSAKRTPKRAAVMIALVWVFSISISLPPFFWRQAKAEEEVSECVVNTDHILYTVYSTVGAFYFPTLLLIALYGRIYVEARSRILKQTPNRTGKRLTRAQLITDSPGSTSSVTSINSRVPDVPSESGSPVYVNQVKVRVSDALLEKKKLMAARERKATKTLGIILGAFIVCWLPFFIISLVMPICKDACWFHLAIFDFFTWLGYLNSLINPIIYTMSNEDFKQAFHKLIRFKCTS
Assay: Mini-profiling panel, GPCR
experimental-endpoint: EC50

* Cn1cnc2c(=O)n(-c3cccnc3C3CC3)c3cc(Cl)ccc3c21 [SCR‐7952] | > 10 µM

====

Target: NMDAR (1A/2B) (Homo sapiens, UniProt Q05586+Q13224)
Test: Mini-profiling panel, ion channel
experimental-endpoint: IC50

- Cn1cnc2c(=O)n(-c3cccnc3C3CC3)c3cc(Cl)ccc3c21: > 10 µM

====

Target: ADORA2A (Homo sapiens, UniProt P29274)
Assay: Mini-profiling panel, GPCR
Settings: GPCR Targets; read-out: ADORA2A Agonism EC50
experimental-endpoint: EC50

• Cn1cnc2c(=O)n(-c3cccnc3C3CC3)c3cc(Cl)ccc3c21 = > 10 µM

====

Test: Plasma pharmacokinetics after multiple administration in xenograft mice
Assay type: in vivo
Conditions: Nu/Nu, mouse, oral; AG-270 200 mg/kg, plasma, HCT116 MTAP−/− xenograft mice; read-out: AUC0-24h total
experimental-endpoint: AUC(0-t)

- COc1ccc(-c2c(Nc3ccccn3)[nH]c3c(C4=CCCCC4)c(-c4ccccc4)nn3c2=O)cc1 [AG‐270, reference compound]: 383 µg·h/mL

====

Biological target: GR (Homo sapiens, UniProt P04150)
Experiment: Mini-profiling panel, nuclear hormone receptor
Settings: NHR Targets; read-out: GR Agonism EC50
pEC50: −log10 of the molar value.
experimental-endpoint: pEC50

- Cn1cnc2c(=O)n(-c3cccnc3C3CC3)c3cc(Cl)ccc3c21 [SCR‐7952]: < 5.00

====

Target: HTR1B (Homo sapiens)
Assay: Mini-profiling panel, GPCR
pIC50: −log10 of the molar value.
experimental-endpoint: pIC50

• Cn1cnc2c(=O)n(-c3cccnc3C3CC3)c3cc(Cl)ccc3c21 = < 5.00

====

Target: HRH1 (Homo sapiens)
Experiment: Mini-profiling panel, GPCR
Settings: GPCR Targets; read-out: HRH1 Agonism EC50
pEC50: −log10 of the molar value.
experimental-endpoint: pEC50

- Cn1cnc2c(=O)n(-c3cccnc3C3CC3)c3cc(Cl)ccc3c21: < 5.00

====

Target: ADRB2 (Homo sapiens)
Experiment: Mini-profiling panel, GPCR
Details: GPCR Targets; read-out: ADRB2 Antagonism IC50
experimental-endpoint: IC50

- Cn1cnc2c(=O)n(-c3cccnc3C3CC3)c3cc(Cl)ccc3c21: > 10 µM

====

Target: DRD2S (Homo sapiens)
Experiment: Mini-profiling panel, GPCR
experimental-endpoint: IC50

- Cn1cnc2c(=O)n(-c3cccnc3C3CC3)c3cc(Cl)ccc3c21: > 10 µM

====

Target: AVPR1A (Homo sapiens, UniProt P37288)
Sequence (P37288 whole entry, species assumed): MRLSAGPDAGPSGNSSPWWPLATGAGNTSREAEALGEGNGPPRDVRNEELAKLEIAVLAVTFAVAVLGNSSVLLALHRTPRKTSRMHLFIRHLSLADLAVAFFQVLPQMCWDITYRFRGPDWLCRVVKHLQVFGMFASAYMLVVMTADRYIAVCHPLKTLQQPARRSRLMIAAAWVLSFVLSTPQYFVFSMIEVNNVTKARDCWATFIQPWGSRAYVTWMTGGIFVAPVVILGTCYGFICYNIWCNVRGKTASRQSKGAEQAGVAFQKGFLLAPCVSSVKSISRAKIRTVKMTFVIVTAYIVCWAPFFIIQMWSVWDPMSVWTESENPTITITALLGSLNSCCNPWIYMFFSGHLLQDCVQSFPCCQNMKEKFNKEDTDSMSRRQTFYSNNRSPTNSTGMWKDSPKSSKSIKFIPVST
Test: Mini-profiling panel, GPCR
Conditions: GPCR Targets; read-out: AVPR1A Agonism EC50
pEC50: −log10 of the molar value.
experimental-endpoint: pEC50

- Cn1cnc2c(=O)n(-c3cccnc3C3CC3)c3cc(Cl)ccc3c21: < 5.00

====

Target: ADRB2 (Homo sapiens, UniProt P07550)
Sequence (P07550 whole entry, species assumed): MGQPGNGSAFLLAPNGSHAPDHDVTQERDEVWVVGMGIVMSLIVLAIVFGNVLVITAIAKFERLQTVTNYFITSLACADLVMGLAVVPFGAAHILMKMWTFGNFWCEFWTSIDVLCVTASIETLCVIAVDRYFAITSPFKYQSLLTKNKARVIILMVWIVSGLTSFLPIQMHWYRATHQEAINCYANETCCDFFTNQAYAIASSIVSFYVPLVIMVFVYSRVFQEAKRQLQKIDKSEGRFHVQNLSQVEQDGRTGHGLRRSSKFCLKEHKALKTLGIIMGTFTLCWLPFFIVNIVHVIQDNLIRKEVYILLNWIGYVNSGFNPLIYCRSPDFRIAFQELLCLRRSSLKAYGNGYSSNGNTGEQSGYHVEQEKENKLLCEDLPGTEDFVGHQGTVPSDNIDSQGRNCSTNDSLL
Experiment: Mini-profiling panel, GPCR
Conditions: GPCR Targets; read-out: ADRB2 Agonism EC50
experimental-endpoint: EC50

* Cn1cnc2c(=O)n(-c3cccnc3C3CC3)c3cc(Cl)ccc3c21 | > 10 µM

====

Target: ADRA1A (Homo sapiens, UniProt P35348)
Test: Mini-profiling panel, GPCR
experimental-endpoint: IC50

* Cn1cnc2c(=O)n(-c3cccnc3C3CC3)c3cc(Cl)ccc3c21 [SCR‐7952] | > 10 µM

====

Target: UniProt:P04150
Sequence (P04150 1-777): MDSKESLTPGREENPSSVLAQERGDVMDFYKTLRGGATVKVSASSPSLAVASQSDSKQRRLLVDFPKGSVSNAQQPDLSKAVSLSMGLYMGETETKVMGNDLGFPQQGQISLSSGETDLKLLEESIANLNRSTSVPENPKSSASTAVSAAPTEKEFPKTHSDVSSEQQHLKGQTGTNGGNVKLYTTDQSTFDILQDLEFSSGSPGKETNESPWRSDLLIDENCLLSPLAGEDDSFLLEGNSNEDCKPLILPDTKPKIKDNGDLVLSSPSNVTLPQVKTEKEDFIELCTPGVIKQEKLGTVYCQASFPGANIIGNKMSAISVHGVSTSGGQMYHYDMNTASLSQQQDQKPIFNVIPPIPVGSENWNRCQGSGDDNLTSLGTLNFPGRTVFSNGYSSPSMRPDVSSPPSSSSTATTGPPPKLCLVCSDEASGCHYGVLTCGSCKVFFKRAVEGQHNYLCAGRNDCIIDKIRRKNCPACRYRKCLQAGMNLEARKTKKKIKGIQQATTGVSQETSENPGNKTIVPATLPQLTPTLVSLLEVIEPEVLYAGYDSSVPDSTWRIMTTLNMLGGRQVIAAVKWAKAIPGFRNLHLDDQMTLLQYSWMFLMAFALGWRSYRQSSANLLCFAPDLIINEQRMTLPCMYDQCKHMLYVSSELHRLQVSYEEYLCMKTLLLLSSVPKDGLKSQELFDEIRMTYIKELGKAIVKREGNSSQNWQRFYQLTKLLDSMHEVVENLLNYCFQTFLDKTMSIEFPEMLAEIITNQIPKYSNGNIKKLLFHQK
Experiment: Mini-profiling panel, nuclear hormone receptor
Details: NHR Targets; read-out: GR Antagonism IC50
pIC50: −log10 of the molar value.
experimental-endpoint: pIC50

• Cn1cnc2c(=O)n(-c3cccnc3C3CC3)c3cc(Cl)ccc3c21 = < 5.00
